Would you mind telling me the reported composite z-score of each entry?
test: binders of probe aFGF10 on microarray, primary screen, stem cell growth factor project, biochemical, small-molecule microarray, fluorescence 635/667 (AID 1071); settings: higher = more signal;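 also: score merges 667 nm spot intensity and signal to noise from triplicate slides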
Answers are plain numbers.

// known answers, use as guide
O=C1C2=CC[C@H]3C(=O)N(C[C@@H]4CCCO4)C(=O)[C@H]3[C@H]2[C@H](O)[C@@H]2O[C@H]12 : 0.111
COC(=O)CC=C[C@@H](C)[C@@H](C=NOC[C@@H](C)[C@H](OCc1ccccc1)C(C)C)NS(=O)(=O)c1ccc(C)cc1 : -0.0494
O=C1[C@H]2CCn3c(=O)n(Cc4cc5c(cc4Cl)OCO5)c(=O)n3[C@H]2[C@H](O)[C@@H]2O[C@H]12 : -0.244
Cc1cc(C)c(-c2cc([C@H](C)ON=C[C@@H](C)[C@H](OCc3ccccc3)C(C)C)on2)c(C)c1 : 0.0823
O=C1C[C@@H](O)[C@@H](O)[C@@H]2[C@@H]3C(=O)N(Cc4ccccc4)C(=O)[C@@H]3CC[C@H]12 : 0.339
O=C1C2=CC[C@H]3C(=O)N(c4ccc(F)cc4F)C(=O)[C@H]3[C@H]2[C@H](O)[C@@H]2O[C@H]12 : 0.37
O=C1C2=CC[C@H]3C(=O)N(C4CCCCC4)C(=O)[C@H]3[C@H]2[C@H](O)[C@@H]2O[C@H]12 : -0.179
CCOC(=O)[C@H](CC(C)C)NC(=O)CCC1CC(OC(=O)NCc2ccc3c(c2)OCO3)CC2(CCCC(COC(=O)NCCc3ccc(Cl)cc3)O2)O1 (stereo partly specified) : 0.744

Look up composite z-score for the entries below, preserving their order.
1. CC(=O)OC[C@H]1O[C@H](CC=NOC[C@@H](O)[C@H]2O[C@@H]3OC(C)(C)O[C@@H]3[C@H]2O)C=C[C@@H]1OC(C)=O
2. CCOC(=O)[C@H](CC(C)C)NC(=O)CCC1CC(OC(=O)NCCc2ccc(F)cc2)CC2(CCCC(COC(=O)NCc3cccc(C(F)(F)F)c3)O2)O1 (stereo partly specified)
3. C=CCOCC1CN2[C@@H](CC[C@@H](C)[C@@H]2c2ccc(Br)cc2)C(=O)O1 (stereo partly specified)
4. CCCC[C@H]1CN2[C@@H](CC[C@@H](C)[C@@H]2c2ccc(Br)cc2)C(=O)O1
5. CCN1C(=O)[C@H]2[C@H]3[C@H](O)[C@H](O)CC(=NOCC(C)C)[C@H]3CC[C@H]2C1=O
6. COc1ccc(O[C@H]2C=C[C@@H](c3ccccc3)O[C@@H]2COC(=O)NCc2cccc3ccccc23)cc1
7. CCOC(=O)[C@H](Cc1ccccc1)NC(=O)CCC1CC(OC(=O)NCc2ccc3c(c2)OCO3)CC2(CCCC(COC(=O)NCCOc3ccccc3)O2)O1 (stereo partly specified)

(A)
1: 0.416; 2: 0.983; 3: -0.204; 4: -0.947; 5: 0.329; 6: 0.0599; 7: 0.378

Hello, I would appreciate it if you could give composite z-score for each entry below.
1. Cc1ccc2[nH]c3nc(CCCn4ccnc4-c4ccccc4)nnc3c2c1
2. CON=C(C)CCN1CCCc2nc(C)c(C)cc21
3. CON=C1c2cc(OC)ccc2O[C@H](c2cccc(OC)c2)[C@H]1O
4. CSCC[C@@H]1NC(=O)CC=C[C@@H](C)COC(=O)[C@H](C)COC1=O
5. COc1cccc([C@H]2Oc3ccc(OC)cc3C(=NO[C@@H](C)c3cc(-c4c(C)cc(C)cc4C)no3)[C@@H]2O)c1
6. CC(CCC(=O)OC[C@H]1O[C@H](C#Cc2ccccc2)C=C[C@@H]1Oc1ccc(C)cc1)=NO[C@@H](C)c1cc(-c2c(C)cc(C)cc2C)no1

(A)
1: 0.247; 2: 0.28; 3: 0.492; 4: -1.11; 5: -1.44; 6: -0.558

Parameter requested: composite z-score. Apply to each item below.
1. CCOC(=O)[C@H](Cc1ccccc1)NC(=O)CCC1CC(OC(=O)NCc2cccc3ccccc23)CC2(CCCC(COC(=O)NCC3CCCCC3)O2)O1 (stereo partly specified)
2. CC(C)[C@@H](OCc1ccccc1)[C@H](C)C=NO[C@H](C)c1cn([C@@H]2COC[C@H]2O)nn1
3. O=C1C2=CC[C@H]3C(=O)N(Cc4ccccc4)C(=O)[C@H]3[C@H]2[C@H](O)[C@@H]2O[C@H]12
4. COc1ccc(O[C@H]2C=C[C@@H](C#Cc3ccccc3)O[C@@H]2CO)cc1
5. O=C1[C@H]2CCn3c(=O)n(-c4ccccc4)c(=O)n3[C@H]2[C@H](O)[C@@H]2O[C@H]12
6. CC(CCC(=O)OC[C@H]1O[C@H](C#Cc2ccccc2)C=C[C@@H]1Oc1ccc(C)cc1)=NO[C@H](C)c1cn([C@@H]2COC[C@H]2O)nn1
7. O=C1CCCC=C1C(O)C1CCCCC1 (stereo unspecified)
8. COC(=O)[C@@H]1CC[C@H](C)[C@@H](c2ccc(C)cc2)N1C(=O)c1ccc(C=NOC[C@H]2O[C@H](c3ccccc3)C=C[C@@H]2Oc2ccc(OC)cc2)cc1

(A)
1. 0.183
2. 0.281
3. 0.011
4. 0.457
5. 0.328
6. 0.0898
7. 0.191
8. 0.217

Hello, I would appreciate it if you could give composite z-score for each entry below.
1. O=C1C=C[C@@H](O)[C@@H]2[C@@H]3C(=O)N(C4CCCCC4)C(=O)[C@@H]3CC[C@@H]12
2. CO[C@@H]1COC(=O)[C@H](CCSC)NC(=O)CC=C[C@@H](C)COC(=O)[C@@H]2CCCN2C(=O)CC=C[C@H]1C

(A)
0.442
0.571
